# Test system: Alopecurus myosuroides
# Procedure Text: Post-emergence herbicidal evaluation, ALOMY
# Condition Label: 0.400 kg/ha, three weeks after treatment
Test Readout: phytotoxicity rating ALOMY

Here is how some molecules turned out for phytotoxicity rating ALOMY.
{"Given Smiles": "CCc1nnc(OCC(=O)N(C)C2=CC(C)(C)CC(C)=C2)s1", "Reported Value": "7 (7 - Good herbicidal effect)"}
{"Given Smiles": "CCc1nnc(OCC(=O)N(C2=CC(C)(C)CC(C)=C2)C(C)C)s1", "Reported Value": "8 (8 - Approaching complete kill)"}
{"Given Smiles": "CC1=CC(N(C)C(=O)COc2nc3ccccc3o2)=CC(C)(C)C1", "Reported Value": "7 (7 - Good herbicidal effect)"}

The following molecules each have a reported value; give each one's phytotoxicity rating ALOMY.
1. CC1=CC(N(C)C(=O)COc2nnc(C(F)(F)C(F)(F)F)s2)=CC(C)(C)C1
2. CC1=CC(N(C(=O)COc2nnc(C(F)(F)F)s2)C(C)C)=CC(C)(C)C1
3. CCc1nnc(OCC(=O)N(CC)C2=CC(C)(C)CC(C)=C2)s1
4. CC1=CC(N(C)C(=O)COc2nnc(C(F)(F)F)s2)=CC(C)(C)C1
5. CCN(C(=O)COc1nnc(C(F)(F)F)s1)C1=CC(C)(C)CC(C)=C1

4 (4 - Injury)
8 (8 - Approaching complete kill)
8 (8 - Approaching complete kill)
7 (7 - Good herbicidal effect)
8 (8 - Approaching complete kill)

###

# System: Lolium perenne
# Procedure Text: Post-emergence herbicidal evaluation, LOLPE
# Condition Label: 0.100 kg/ha, three weeks after treatment
Test Readout: phytotoxicity rating LOLPE

Consider the worked cases shown below.
{"Molecule": "CC1=CC(N(C(=O)COc2nc3ccccc3o2)C(C)C)=CC(C)(C)C1 [Example 17]", "phytotoxicity rating LOLPE": "4 (4 - Injury)"}
{"Molecule": "CC1=CC(N(C)C(=O)COc2nc3ccccc3o2)=CC(C)(C)C1 [Example 16]", "phytotoxicity rating LOLPE": "4 (4 - Injury)"}
{"Molecule": "CCN(C(=O)COc1nnc(C(F)(F)F)s1)C1=CC(C)(C)CC(C)=C1 [Example 1]", "phytotoxicity rating LOLPE": "6 (6 - Herbicidal effect)"}
{"Molecule": "CCc1nnc(OCC(=O)N(C)C2=CC(C)(C)CC(C)=C2)s1 [Example 5]", "phytotoxicity rating LOLPE": "0 (0 - No effect)"}

For each listed entry, give its phytotoxicity rating LOLPE.
1. CCN(C(=O)COc1nnc(C(F)(F)C(F)(F)F)s1)C1=CC(C)(C)CC(C)=C1 [Example 8]
2. CC1=CC(N(C(=O)COc2nnc(C(F)(F)F)s2)C(C)C)=CC(C)(C)C1 [Example 4]
3. CCc1nnc(OCC(=O)N(C2=CC(C)(C)CC(C)=C2)C(C)C)s1 [Example 11]
4. CC1=CC(N(C)C(=O)COc2nnc(C(F)(F)C(F)(F)F)s2)=CC(C)(C)C1 [Example 7]
5. CCN(C(=O)COc1nc2ccccc2o1)C1=CC(C)(C)CC(C)=C1 [Example 2]
6. CCc1nnc(OCC(=O)N(CC)C2=CC(C)(C)CC(C)=C2)s1 [Example 6]

1. 1 (1 - Trace effect)
2. 5 (5 - Definite injury)
3. 3 (3 - Moderate effect)
4. 0 (0 - No effect)
5. 5 (5 - Definite injury)
6. 0 (0 - No effect)

###

# System: Echinochloa crus-galli
# Procedure Text: Post-emergence herbicidal evaluation, ECHCG
# Condition Label: 0.100 kg/ha, three weeks after treatment
Test Readout: phytotoxicity rating ECHCG

The examples below pair each entry with its known result.
{"Given Smiles": "CCc1nnc(OCC(=O)N(C)C2=CC(C)(C)CC(C)=C2)s1", "Test Readout": "phytotoxicity rating ECHCG", "Reported Value": "0 (0 - No effect)"}
{"Given Smiles": "CCc1nnc(OCC(=O)N(CC)C2=CC(C)(C)CC(C)=C2)s1", "Test Readout": "phytotoxicity rating ECHCG", "Reported Value": "0 (0 - No effect)"}
{"Given Smiles": "CCc1nnc(OCC(=O)N(C2=CC(C)(C)CC(C)=C2)C(C)C)s1", "Test Readout": "phytotoxicity rating ECHCG", "Reported Value": "0 (0 - No effect)"}
{"Given Smiles": "CC1=CC(N(C)C(=O)COc2nnc(C(F)(F)C(F)(F)F)s2)=CC(C)(C)C1", "Test Readout": "phytotoxicity rating ECHCG", "Reported Value": "0 (0 - No effect)"}
{"Given Smiles": "CC1=CC(N(C(=O)COc2nc3ccccc3o2)C(C)C)=CC(C)(C)C1", "Test Readout": "phytotoxicity rating ECHCG", "Reported Value": "3 (3 - Moderate effect)"}

Hey, can you go through the list below and give me phytotoxicity rating ECHCG for every item?
1. CC1=CC(N(C(=O)COc2nnc(C(F)(F)F)s2)C(C)C)=CC(C)(C)C1
2. CCN(C(=O)COc1nnc(C(F)(F)F)s1)C1=CC(C)(C)CC(C)=C1
3. CCN(C(=O)COc1nc2ccccc2o1)C1=CC(C)(C)CC(C)=C1
4. CCN(C(=O)COc1nnc(C(F)(F)C(F)(F)F)s1)C1=CC(C)(C)CC(C)=C1
5. CC1=CC(N(C)C(=O)COc2nc3ccccc3o2)=CC(C)(C)C1

3 (3 - Moderate effect)
2 (2 - Slight effect)
1 (1 - Trace effect)
0 (0 - No effect)
0 (0 - No effect)

###

Record form. Attribute: phytotoxicity rating ALOMY. Fill in for each entry.
# System: Alopecurus myosuroides
# Procedure Text: Post-emergence herbicidal evaluation, ALOMY
# Condition Label: 0.200 kg/ha, three weeks after treatment

Below: 5 compounds and their reported phytotoxicity rating ALOMY.
{"Given Smiles": "CCN(C(=O)COc1nnc(C(F)(F)C(F)(F)F)s1)C1=CC(C)(C)CC(C)=C1", "phytotoxicity rating ALOMY": "4 (4 - Injury)"}
{"Given Smiles": "CC1=CC(N(C(=O)COc2nc3ccccc3o2)C(C)C)=CC(C)(C)C1", "phytotoxicity rating ALOMY": "6 (6 - Herbicidal effect)"}
{"Given Smiles": "CC1=CC(N(C)C(=O)COc2nnc(C(F)(F)F)s2)=CC(C)(C)C1", "phytotoxicity rating ALOMY": "4 (4 - Injury)"}
{"Given Smiles": "CC1=CC(N(C)C(=O)COc2nc3ccccc3o2)=CC(C)(C)C1", "phytotoxicity rating ALOMY": "5 (5 - Definite injury)"}
{"Given Smiles": "CCc1nnc(OCC(=O)N(C)C2=CC(C)(C)CC(C)=C2)s1", "phytotoxicity rating ALOMY": "2 (2 - Slight effect)"}

Shift focus to the following entry.
phytotoxicity rating ALOMY of CCc1nnc(OCC(=O)N(CC)C2=CC(C)(C)CC(C)=C2)s1 , assay on Alopecurus myosuroides, is 4 (4 - Injury)

###

# System: Setaria viridis
# Procedure Text: Pre-emergence herbicidal evaluation, SETVI
# Type: in vivo
# Condition Label: 0.400 kg/ha, three weeks after treatment
Would you kindly list phytotoxicity rating SETVI for each of these compounds?

{"Compound": "CC1=CC(N(C)C(=O)COc2nnc(C(F)(F)F)s2)=CC(C)(C)C1 [Example 3]", "phytotoxicity rating SETVI": "8 (8 - Approaching complete kill)"}

Hi team, please reply with phytotoxicity rating SETVI for each item in this list.
1. CCc1nnc(OCC(=O)N(CC)C2=CC(C)(C)CC(C)=C2)s1 [Example 6]
2. CCN(C(=O)COc1nnc(C(F)(F)F)s1)C1=CC(C)(C)CC(C)=C1 [Example 1]
3. CCc1nnc(OCC(=O)N(C2=CC(C)(C)CC(C)=C2)C(C)C)s1 [Example 11]
4. CCc1nnc(OCC(=O)N(C)C2=CC(C)(C)CC(C)=C2)s1 [Example 5]
5. CC1=CC(N(C)C(=O)COc2nc3ccccc3o2)=CC(C)(C)C1 [Example 16]

1: 8 (8 - Approaching complete kill); 2: 8 (8 - Approaching complete kill); 3: 8 (8 - Approaching complete kill); 4: 7 (7 - Good herbicidal effect); 5: 9 (9 - Complete kill)

Would you be so kind as to report phytotoxicity rating SETVI for each listed record?
1. CC1=CC(N(C)C(=O)COc2nnc(C(F)(F)C(F)(F)F)s2)=CC(C)(C)C1 [Example 7]
2. CCN(C(=O)COc1nc2ccccc2o1)C1=CC(C)(C)CC(C)=C1 [Example 2]
3. CC1=CC(N(C(=O)COc2nnc(C(F)(F)F)s2)C(C)C)=CC(C)(C)C1 [Example 4]
4. CC1=CC(N(C(=O)COc2nc3ccccc3o2)C(C)C)=CC(C)(C)C1 [Example 17]
5. CCN(C(=O)COc1nnc(C(F)(F)C(F)(F)F)s1)C1=CC(C)(C)CC(C)=C1 [Example 8]

0 (0 - No effect)
7 (7 - Good herbicidal effect)
6 (6 - Herbicidal effect)
8 (8 - Approaching complete kill)
4 (4 - Injury)

###

Record form. Attribute: phytotoxicity rating LOLPE. Fill in for each entry.
# Tested on: Lolium perenne
# Procedure Text: Pre-emergence herbicidal evaluation, LOLPE
# Format: in vivo
# Condition Label: 0.200 kg/ha, three weeks after treatment

Here's what some known entries look like.
{"Given Smiles": "CC1=CC(N(C)C(=O)COc2nc3ccccc3o2)=CC(C)(C)C1", "Assay Target": "Lolium perenne", "Reported Value": "0 (0 - No effect)"}
{"Given Smiles": "CCN(C(=O)COc1nnc(C(F)(F)C(F)(F)F)s1)C1=CC(C)(C)CC(C)=C1", "Assay Target": "Lolium perenne", "Reported Value": "4 (4 - Injury)"}
{"Given Smiles": "CC1=CC(N(C(=O)COc2nc3ccccc3o2)C(C)C)=CC(C)(C)C1", "Assay Target": "Lolium perenne", "Reported Value": "9 (9 - Complete kill)"}
{"Given Smiles": "CCc1nnc(OCC(=O)N(CC)C2=CC(C)(C)CC(C)=C2)s1", "Assay Target": "Lolium perenne", "Reported Value": "0 (0 - No effect)"}
{"Given Smiles": "CCN(C(=O)COc1nnc(C(F)(F)F)s1)C1=CC(C)(C)CC(C)=C1", "Assay Target": "Lolium perenne", "Reported Value": "3 (3 - Moderate effect)"}
{"Given Smiles": "CC1=CC(N(C)C(=O)COc2nnc(C(F)(F)F)s2)=CC(C)(C)C1", "Assay Target": "Lolium perenne", "Reported Value": "7 (7 - Good herbicidal effect)"}
{"Given Smiles": "CCc1nnc(OCC(=O)N(C)C2=CC(C)(C)CC(C)=C2)s1", "Assay Target": "Lolium perenne", "Reported Value": "5 (5 - Definite injury)"}
{"Given Smiles": "CC1=CC(N(C)C(=O)COc2nnc(C(F)(F)C(F)(F)F)s2)=CC(C)(C)C1", "Assay Target": "Lolium perenne", "Reported Value": "0 (0 - No effect)"}

Batch lookup, phytotoxicity rating LOLPE per entry.
1. CCc1nnc(OCC(=O)N(C2=CC(C)(C)CC(C)=C2)C(C)C)s1
2. CCN(C(=O)COc1nc2ccccc2o1)C1=CC(C)(C)CC(C)=C1

1: 5 (5 - Definite injury); 2: 2 (2 - Slight effect)

Measured phytotoxicity rating LOLPE of CC1=CC(N(C(=O)COc2nnc(C(F)(F)F)s2)C(C)C)=CC(C)(C)C1 : 9 (9 - Complete kill)
